A collection of compounds and their measured Concentration 2004–2005, Mean ± SD
assay: Serum lipid-adjusted dioxin congener concentrations in former chlorophenol workers, repeated blood sampling 2004–2005 and 2010; assay type: in vivo, human; details: serum, 56 Midland study participants, 2004–2005 sampling
measurementLabel: Concentration 2004–2005, Mean ± SD

> print(dat)
                            smilesstructure                      result
1  Clc1cc2c(c(Cl)c1Cl)Oc1c(cc(Cl)c(Cl)c1Cl)O2      19.4 ± 14.5 pg/g lipid
2        Clc1cc2c(cc1Cl)Oc1cc(Cl)c(Cl)cc1O2      21.1 ± 30.0 pg/g lipid
3  Clc1c(Cl)c(Cl)c2c(c1Cl)Oc1c(Cl)c(Cl)c(Cl)c(Cl)c1O2  1919.6 ± 2121.0 pg/g lipid
4  Clc1cc2c(c(Cl)c1Cl)Oc1c(Cl)c(Cl)c(Cl)c(Cl)c1O2    159.9 ± 161.8 pg/g lipid
5    Clc1cccc2c1Oc1c(Cl)c(Cl)c(Cl)c(Cl)c1O2      19.7 ± 11.3 pg/g lipid
6  Clc1cc2c(cc1Cl)Oc1c(Cl)c(Cl)c(Cl)c(Cl)c1O2      16.0 ± 11.9 pg/g lipid
7  Clc1cc2c(c(Cl)c1Cl)Oc1cc(Cl)c(Cl)c(Cl)c1O2     136.6 ± 99.9 pg/g lipid

###

A collection of compounds and their measured half-life
assay: Elimination half-lives from serial serum samples, first-order one-compartment model; assay type: in vivo; conditions: human, serum (lipid-adjusted), other: occupational exposure, 56 participants; based on change in estimated mass of the congener in the body; read-out: Elimination half-lives [median (P25–P75)], Apparent, mass based (converted)
measurementLabel: half-life

> print(dat)
                            smilesstructure  measurementlabel     result
1        Clc1cc2c(cc1Cl)Oc1cc(Cl)c(Cl)cc1O2         half-life  2560 days
2  Clc1cc2c(c(Cl)c1Cl)Oc1c(cc(Cl)c(Cl)c1Cl)O2         half-life  2480 days
3    Clc1cccc2c1Oc1c(Cl)c(Cl)c(Cl)c(Cl)c1O2         half-life  4240 days
4  Clc1cc2c(c(Cl)c1Cl)Oc1cc(Cl)c(Cl)c(Cl)c1O2         half-life  4020 days
5  Clc1cc2c(cc1Cl)Oc1c(Cl)c(Cl)c(Cl)c(Cl)c1O2         half-life  3000 days
6  Clc1c(Cl)c(Cl)c2c(c1Cl)Oc1c(Cl)c(Cl)c(Cl)c(Cl)c1O2         half-life  3030 days
7  Clc1cc2c(c(Cl)c1Cl)Oc1c(Cl)c(Cl)c(Cl)c(Cl)c1O2         half-life  2780 days

###

A collection of molecules and their measured half-life
assay: Elimination half-lives from serial serum samples, first-order one-compartment model; assay type: in vivo; conditions: human, serum (lipid-adjusted), other: occupational exposure, 56 participants; based on change in serum lipid concentration; read-out: Elimination half-lives [median (P25–P75)], Apparent, concentration based (converted)
measurementLabel: half-life

> print(dat)
                                   molecule     result
1  Clc1c(Cl)c(Cl)c2c(c1Cl)Oc1c(Cl)c(Cl)c(Cl)c(Cl)c1O2 [OCDD, octachlorodibenzo-p-dioxin]  2850 days
2  Clc1cccc2c1Oc1c(Cl)c(Cl)c(Cl)c(Cl)c1O2 [PeCDD, pentachlorodibenzo-p-dioxin]  3910 days
3  Clc1cc2c(cc1Cl)Oc1c(Cl)c(Cl)c(Cl)c(Cl)c1O2 [Congener 14HxCDD, 1,2,3,4,7,8-hexachlorodibenzo-p-dioxin]  2960 days
4  Clc1cc2c(c(Cl)c1Cl)Oc1cc(Cl)c(Cl)c(Cl)c1O2 [Congener 16HxCDD, 1,2,3,6,7,8-hexachlorodibenzo-p-dioxin]  3690 days
5  Clc1cc2c(c(Cl)c1Cl)Oc1c(cc(Cl)c(Cl)c1Cl)O2 [Congener 19HxCDD, 1,2,3,7,8,9-hexachlorodibenzo-p-dioxin]  2260 days
6  Clc1cc2c(cc1Cl)Oc1cc(Cl)c(Cl)cc1O2 [TCDD, 2,3,7,8-tetrachlorodibenzo-p-dioxin]  2370 days
7  Clc1cc2c(c(Cl)c1Cl)Oc1c(Cl)c(Cl)c(Cl)c(Cl)c1O2 [HpCDD]  2560 days

###

experiment: Elimination half-lives from serial serum samples, first-order one-compartment model; assay type: in vivo; details: human, serum (lipid-adjusted), other: occupational exposure, 56 participants; change in body mass after accounting for plausible background intake (Table 3); read-out: Elimination half-lives [median (P25–P75)], Estimated intrinsic (converted)
A collection of compounds and their measured half-life
measurementLabel: half-life (days)

> print(dat)
                                   compound  resultnumber
1  Clc1c(Cl)c(Cl)c2c(c1Cl)Oc1c(Cl)c(Cl)c(Cl)c(Cl)c1O2 [OCDD, octachlorodibenzo-p-dioxin]          2670
2  Clc1cc2c(c(Cl)c1Cl)Oc1c(cc(Cl)c(Cl)c1Cl)O2 [Congener 19HxCDD, 1,2,3,7,8,9-hexachlorodibenzo-p-dioxin]          2300
3  Clc1cc2c(c(Cl)c1Cl)Oc1c(Cl)c(Cl)c(Cl)c(Cl)c1O2 [HpCDD]          2450
4  Clc1cc2c(cc1Cl)Oc1cc(Cl)c(Cl)cc1O2 [TCDD, 2,3,7,8-tetrachlorodibenzo-p-dioxin]          2370
5  Clc1cc2c(c(Cl)c1Cl)Oc1cc(Cl)c(Cl)c(Cl)c1O2 [Congener 16HxCDD, 1,2,3,6,7,8-hexachlorodibenzo-p-dioxin]          3290
6  Clc1cccc2c1Oc1c(Cl)c(Cl)c(Cl)c(Cl)c1O2 [PeCDD, pentachlorodibenzo-p-dioxin]          3910
7  Clc1cc2c(cc1Cl)Oc1c(Cl)c(Cl)c(Cl)c(Cl)c1O2 [Congener 14HxCDD, 1,2,3,4,7,8-hexachlorodibenzo-p-dioxin]          2560
